Values compiled from patent US20240165244A1.

# TESTED SYSTEM: SMARCA4 (Homo sapiens, UniProt P51532)
# Construct: SMARCA4-HiBiT knock-in Hela monoclonal cell (CS3023226); host or cells: HeLa monoclonal cells with heterozygous HiBiT knock-in at the endogenous SMARCA4 locus
# Sequence (P51532 whole entry): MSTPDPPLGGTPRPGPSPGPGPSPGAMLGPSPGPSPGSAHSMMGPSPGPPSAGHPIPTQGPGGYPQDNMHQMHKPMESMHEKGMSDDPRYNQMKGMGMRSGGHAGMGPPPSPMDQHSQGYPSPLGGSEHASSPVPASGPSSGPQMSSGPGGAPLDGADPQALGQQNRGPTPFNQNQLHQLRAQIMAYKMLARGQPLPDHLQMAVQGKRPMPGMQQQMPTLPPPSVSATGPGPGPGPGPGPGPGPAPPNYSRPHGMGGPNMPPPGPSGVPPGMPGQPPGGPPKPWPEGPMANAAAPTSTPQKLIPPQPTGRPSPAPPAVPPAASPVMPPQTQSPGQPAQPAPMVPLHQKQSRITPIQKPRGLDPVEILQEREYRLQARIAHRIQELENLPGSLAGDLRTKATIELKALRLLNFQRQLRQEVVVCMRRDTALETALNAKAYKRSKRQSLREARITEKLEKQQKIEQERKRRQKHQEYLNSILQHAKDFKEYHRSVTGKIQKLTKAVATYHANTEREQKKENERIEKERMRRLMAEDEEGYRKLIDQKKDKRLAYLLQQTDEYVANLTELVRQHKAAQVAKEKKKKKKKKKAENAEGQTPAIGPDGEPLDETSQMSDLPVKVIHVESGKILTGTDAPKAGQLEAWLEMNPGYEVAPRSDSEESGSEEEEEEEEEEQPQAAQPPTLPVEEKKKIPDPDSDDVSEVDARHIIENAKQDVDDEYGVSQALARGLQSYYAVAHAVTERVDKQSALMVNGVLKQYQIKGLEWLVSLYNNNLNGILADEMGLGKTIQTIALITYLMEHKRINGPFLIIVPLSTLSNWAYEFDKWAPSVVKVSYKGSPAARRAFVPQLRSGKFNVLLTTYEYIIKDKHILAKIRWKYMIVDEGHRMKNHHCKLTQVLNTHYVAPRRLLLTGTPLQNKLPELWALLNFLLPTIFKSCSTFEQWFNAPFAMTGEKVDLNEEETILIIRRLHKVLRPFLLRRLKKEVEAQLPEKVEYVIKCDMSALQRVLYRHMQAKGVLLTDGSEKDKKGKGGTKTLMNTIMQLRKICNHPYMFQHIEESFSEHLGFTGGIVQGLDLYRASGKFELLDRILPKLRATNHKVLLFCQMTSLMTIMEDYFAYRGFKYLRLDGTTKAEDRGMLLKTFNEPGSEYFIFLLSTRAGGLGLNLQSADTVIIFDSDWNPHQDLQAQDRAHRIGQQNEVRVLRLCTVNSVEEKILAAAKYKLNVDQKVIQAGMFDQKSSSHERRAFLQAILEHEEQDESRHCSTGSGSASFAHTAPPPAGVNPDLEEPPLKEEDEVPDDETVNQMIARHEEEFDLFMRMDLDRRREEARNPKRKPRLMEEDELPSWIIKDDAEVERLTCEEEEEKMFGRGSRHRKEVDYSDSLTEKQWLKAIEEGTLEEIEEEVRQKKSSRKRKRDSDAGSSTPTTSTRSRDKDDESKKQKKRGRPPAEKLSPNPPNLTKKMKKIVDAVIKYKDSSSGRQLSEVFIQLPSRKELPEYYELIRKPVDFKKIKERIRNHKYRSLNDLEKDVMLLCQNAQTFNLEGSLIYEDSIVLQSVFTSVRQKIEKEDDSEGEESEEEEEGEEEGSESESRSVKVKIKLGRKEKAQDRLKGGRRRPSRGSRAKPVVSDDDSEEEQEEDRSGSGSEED
# PROTOCOL SUMMARY: SMARCA4 HiBiT degradation assay in HeLa cells
# Format: cell-based
# RUN PARAMETERS: 18 hours, highest concentration 10 μM
MEASURED METRIC: Dmax

Answered examples (2):
MOLECULE	TESTED SYSTEM	Dmax
Cc1cc(O[C@@H]2C[C@@H]3CNc4nnc(-c5cccc(Cl)c5O)cc4N3C2)ccc1CN1CCN(c2ccc3c(c2)C(=O)N(C2CCC(=O)NC2=O)C3)CC1 (stereo partly drawn) [Example 10]	SMARCA4 (Homo sapiens, UniProt P51532)	50 to 75%
CC[C@]12CNc3nnc(-c4cccc(F)c4O)cc3N1C[C@H](Oc1cnc(CN3CCC(c4ccc5c(c4)C(=O)N([C@H]4CCC(=O)NC4=O)C5)CC3)cn1)C2 [Example 103]	SMARCA4 (Homo sapiens, UniProt P51532)	50 to 75%

Asked: Annotate the molecule Cc1cc(O[C@@H]2C[C@@H]3CNc4nnc(-c5cc(F)cc(F)c5O)cc4N3C2)ncc1CN1CCN(c2ccc3c(c2)C(=O)N([C@H]2CCC(=O)NC2=O)C3)CC1 [Example 28] with its measured Dmax.
Given back: 50 to 75%

----------
# TESTED SYSTEM: SMARCA4 (Homo sapiens, UniProt P51532)
# Construct: SMARCA4-HiBiT knock-in Hela monoclonal cell (CS3023226); host or cells: HeLa monoclonal cells with heterozygous HiBiT knock-in at the endogenous SMARCA4 locus
# PROTOCOL SUMMARY: SMARCA4 HiBiT degradation assay in HeLa cells
# Assay type: cell-based
# RUN PARAMETERS: 18 hours, highest concentration 10 μM
MEASURED METRIC: DC50

Answered examples (4):
COMPOUND	TESTED SYSTEM	RESULT
CCc1nc(CN2CCC(c3ccc4c(c3)C(=O)N([C@H]3CCC(=O)NC3=O)C4)CC2)cnc1O[C@H]1CN2c3cc(-c4cccc(F)c4O)nnc3NC[C@@]2(CF)C1	SMARCA4 (Homo sapiens, UniProt P51532)	> 1000 nM
C[C@@H]1CN(CC2CCN(c3ccc4c(c3)C(=O)N(C3CCC(=O)NC3=O)C4)CC2)C[C@H](C)N1C(=O)[C@@H]1C[C@@H]2CNc3nnc(-c4cccc(F)c4O)cc3N2C1 (some centres unmarked)	SMARCA4 (Homo sapiens, UniProt P51532)	> 1000 nM
O=C1CCC(N2Cc3ccc(N4CCN(Cc5ccc(O[C@@H]6C[C@@H]7CNc8nnc(-c9cccc(Cl)c9O)cc8N7C6)cc5)CC4)cc3C2=O)C(=O)N1 (some centres unmarked)	SMARCA4 (Homo sapiens, UniProt P51532)	< 100 nM
Cc1c(CN2CCN(c3ccc4c(c3)C(=O)N(C3CCC(=O)NC3=O)C4)CC2)ccc(O[C@@H]2C[C@@H]3CNc4nnc(-c5cc(F)cc(F)c5O)cc4N3C2)c1C (some centres unmarked)	SMARCA4 (Homo sapiens, UniProt P51532)	< 100 nM

Now for the compound whose DC50 we want.
Asked: Annotate the compound Cc1cc(O[C@H]2CN3c4cc(-c5cccc(F)c5O)nnc4NC[C@@]3(CF)C2)ncc1CN1CCC(c2ccc3c(c2)C(=O)N([C@H]2CCC(=O)NC2=O)C3)CC1 with its measured DC50.
Given back: > 1000 nM

----------
# TESTED SYSTEM: SMARCA4 (Homo sapiens)
# Construct: SMARCA4-HiBiT knock-in Hela monoclonal cell (CS3023226); host or cells: HeLa monoclonal cells with heterozygous HiBiT knock-in at the endogenous SMARCA4 locus
# PROTOCOL SUMMARY: SMARCA4 HiBiT degradation assay in HeLa cells
# Assay type: cell-based
# RUN PARAMETERS: 18 hours, highest concentration 10 μM
Dmax values for the molecules below.

Answered examples (5):
MOLECULE	Dmax
Cc1cc(O[C@H]2CN3c4cc(-c5cccc(F)c5O)nnc4NC[C@@]3(CF)C2)ncc1CN1CCC(c2ccc3c(c2)C(=O)N([C@H]2CCC(=O)NC2=O)C3)CC1	< 50%
Cc1cc(O[C@@H]2C[C@@H]3CNc4nnc(-c5cccc(F)c5O)cc4N3C2)ccc1CN1CCN(c2ccc3c(c2)C(=O)N(C2CCC(=O)NC2=O)C3)CC1 (some centres unmarked)	50 to 75%
Cc1nc(CN2CCC(c3ccc4c(c3)C(=O)N([C@H]3CCC(=O)NC3=O)C4)CC2)cnc1O[C@H]1CN2c3cc(-c4cccc(F)c4O)nnc3NC[C@]2(C(F)F)C1	50 to 75%
C[C@]12CNc3nnc(-c4cccc(F)c4O)cc3N1C[C@H](Oc1cnc(CN3CCN(c4ccc5c(c4)C(=O)N([C@H]4CCC(=O)NC4=O)C5)CC3)cn1)C2	50 to 75%
Cc1cc(O[C@H]2CN3c4cc(-c5cccc(F)c5O)nnc4NC[C@@]3(CF)C2)ncc1CN1CCN(c2ccc3c(c2)C(=O)N([C@H]2CCC(=O)NC2=O)C3)CC1	< 50%

Now for the molecule whose Dmax we want.
Asked: Annotate the molecule Cc1nc(CN2CCC(c3ccc4c(c3)C(=O)N([C@H]3CCC(=O)NC3=O)C4)CC2)cnc1O[C@H]1CN2c3cc(-c4cccc(F)c4O)nnc3NC[C@@]2(CF)C1 with its measured Dmax.
Given back: < 50%

----------
DC50 values for the compounds below.
# TESTED SYSTEM: SMARCA4 (Homo sapiens)
# Construct: SMARCA4-HiBiT knock-in Hela monoclonal cell (CS3023226); host or cells: HeLa monoclonal cells with heterozygous HiBiT knock-in at the endogenous SMARCA4 locus
# PROTOCOL SUMMARY: SMARCA4 HiBiT degradation assay in HeLa cells
# Assay type: cell-based
# RUN PARAMETERS: 18 hours, highest concentration 10 μM

COMPOUND	MEASURED METRIC	RESULT
Cc1cc(O[C@H]2CN3c4cc(-c5cccc(F)c5O)nnc4NC[C@@]3(C)C2)cnc1CN1CCN(c2ccc3c(c2)C(=O)N([C@H]2CCC(=O)NC2=O)C3)CC1 [Example 81]	DC50	0.1 to 1 µM

Asked: Annotate the compound O=C1CCC(N2Cc3ccc(N4CCN(Cc5ccc(O[C@@H]6C[C@@H]7CNc8nnc(-c9cc(F)cc(F)c9O)cc8N7C6)cc5F)CC4)cc3C2=O)C(=O)N1 (stereo partly drawn) [Example 13] with its measured DC50.
Given back: < 0.1 µM

Asked: Annotate the compound Cc1cc(O[C@@H]2C[C@@H]3CNc4nnc(-c5cccc(F)c5O)cc4N3C2)ccc1CN1CCN(c2ccc3c(c2)C(=O)N(C2CCC(=O)NC2=O)C3)CC1 (stereo partly drawn) [Example 11] with its measured DC50.
Given back: < 0.1 µM

----------
# TESTED SYSTEM: SMARCA4 (Homo sapiens)
# Construct: SMARCA4-HiBiT knock-in Hela monoclonal cell (CS3023226); host or cells: HeLa monoclonal cells with heterozygous HiBiT knock-in at the endogenous SMARCA4 locus
# PROTOCOL SUMMARY: SMARCA4 HiBiT degradation assay in HeLa cells
# Assay type: cell-based
# RUN PARAMETERS: 18 hours, highest concentration 10 μM
# Method: SMARCA2 HiBiT and SMARCA4 HiBiT Degradation Assay HiBiT peptide knock-in of SMARCA2 in LgBiT expressing HEK293T cells was performed by CRISPR-mediated tagging system as described Promega. […] SMARCA2-HiBiT knock-in Hela monoclonal cell (CS302366) and SMARCA4-HiBiT knock-in Hela monoclonal cell (CS3023226) were purchased from Promega. SMARCA2 HiBiT and SMARCA4 HiBiT Degradation Assay in HeLa Cells […]
MEASURED METRIC: DC50

Answered examples (4):
MOLECULE	DC50
CC[C@@]12CNc3nnc(-c4cccc(F)c4O)cc3N1C[C@H](Oc1cc(C)c(CN3CCN(c4ccc5c(c4)C(=O)N(C4CCC(=O)NC4=O)C5)CC3)c(C)n1)C2 (stereo partly drawn) [Example 62]	100 to 1000 nM
Cc1cc(O[C@@H]2C[C@@H]3CNc4nnc(-c5cc(F)cc(F)c5O)cc4N3C2)cc(C)c1CN1CCN(c2ccc3c(c2)C(=O)N(C2CCC(=O)NC2=O)C3)CC1 (stereo partly drawn) [Example 17]	> 1000 nM
CC[C@@]12CNc3nnc(-c4cccc(F)c4O)cc3N1C[C@H](Oc1nc(C)c(CN3CCN(c4ccc5c(c4)C(=O)N([C@H]4CCC(=O)NC4=O)C5)CC3)cc1C#N)C2 [Example 59]	< 100 nM
Cc1cc(CN2CCN(c3ccc4c(c3)C(=O)N(C3CCC(=O)NC3=O)C4)CC2)ccc1O[C@@H]1C[C@@H]2CNc3nnc(-c4cc(F)cc(F)c4O)cc3N2C1 (stereo partly drawn) [Example 2]	< 100 nM

Asked: Annotate the molecule Cc1cc(O[C@@H]2C[C@@H]3CNc4nnc(-c5cccc(Cl)c5O)cc4N3C2)ccc1CN1CCN(c2ccc3c(c2)C(=O)N(C2CCC(=O)NC2=O)C3)CC1 (stereo partly drawn) [Example 10] with its measured DC50.
Given back: > 1000 nM

Asked: Annotate the molecule O=C1CCC(N2Cc3ccc(N4CCN(Cc5cnc(S[C@@H]6C[C@@H]7CNc8nnc(-c9cc(F)cc(F)c9O)cc8N7C6)nc5)CC4)cc3C2=O)C(=O)N1 (stereo partly drawn) [Example 26] with its measured DC50.
Given back: < 100 nM

Asked: Annotate the molecule O=C1CCC(N2Cc3ccc(N4CCN(Cc5cnc(O[C@H]6CN7c8cc(-c9cccc(F)c9O)nnc8NC[C@@]7(CF)C6)c(F)c5)CC4)cc3C2=O)C(=O)N1 (stereo partly drawn) [Example 70] with its measured DC50.
Given back: < 100 nM

Asked: Annotate the molecule O=C1CCC(N2Cc3ccc(N4CCN(Cc5cnc(O[C@H]6CN7c8cc(-c9cccc(F)c9O)nnc8NC[C@@]7(C(F)F)C6)c(F)c5)CC4)cc3C2=O)C(=O)N1 (stereo partly drawn) [Example 84] with its measured DC50.
Given back: 100 to 1000 nM

Asked: Annotate the molecule CN(c1ccc(CN2CCN(c3ccc4c(c3)C(=O)N(C3CCC(=O)NC3=O)C4)CC2)cn1)[C@@H]1C[C@@H]2CNc3nnc(-c4cccc(F)c4O)cc3N2C1 (stereo partly drawn) [Example 35] with its measured DC50.
Given back: > 1000 nM
